These measurements were taken from paper PMC13503280.

# target-or-system: Keap1 (Homo sapiens)
# Sequence (Q14145 whole entry): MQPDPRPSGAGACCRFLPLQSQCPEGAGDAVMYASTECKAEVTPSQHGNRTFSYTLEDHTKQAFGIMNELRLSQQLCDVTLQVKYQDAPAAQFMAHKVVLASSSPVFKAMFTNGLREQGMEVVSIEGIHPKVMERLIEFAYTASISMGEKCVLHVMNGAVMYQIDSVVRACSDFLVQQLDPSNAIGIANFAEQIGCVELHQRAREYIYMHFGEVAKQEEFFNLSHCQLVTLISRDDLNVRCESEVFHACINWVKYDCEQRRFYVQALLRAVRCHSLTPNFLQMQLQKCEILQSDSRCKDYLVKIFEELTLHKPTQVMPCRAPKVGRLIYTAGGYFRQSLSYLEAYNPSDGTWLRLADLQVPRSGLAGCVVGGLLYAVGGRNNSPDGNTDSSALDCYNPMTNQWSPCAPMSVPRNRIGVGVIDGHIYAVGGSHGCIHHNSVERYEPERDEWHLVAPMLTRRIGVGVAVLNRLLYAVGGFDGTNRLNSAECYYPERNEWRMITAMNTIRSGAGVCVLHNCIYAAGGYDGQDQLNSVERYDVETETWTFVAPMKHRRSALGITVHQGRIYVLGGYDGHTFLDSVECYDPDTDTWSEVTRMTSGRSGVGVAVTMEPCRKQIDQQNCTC
# assay-method-text: WB of Keap1 in OCI-AML2 cells (soluble/insoluble phase)
# Format: cell-based
# Design: endogenous in cells; host or cells: OCI-AML2
# reported-conditions: OCI-AML2 cells, 20 h treatment; read-out: EC50 (Keap1 downregulation, WB)
Please go through the items and note down their pEC50.
Numbers only, as −log10 of the molar value.

>>> quantitative_readout("CC1(C)CCC2(C(=O)NCCSCCSCCNC(=O)C34CCC(C)(C)CC3C3C(=O)C=C5C6(C)C=C(C#N)C(=O)C(C)(C)C6CCC5(C)C3(C)CC4)CCC3(C)C(C(=O)C=C4C5(C)C=C(C#N)C(=O)C(C)(C)C5CCC43C)C2C1 (centres unmarked)")
6.36
>>> quantitative_readout("CC1(C)CCC2(C(=O)NCCOCCOCCOCCOCCOCCOCCNC(=O)C34CCC(C)(C)CC3C3C(=O)C=C5C6(C)C=C(C#N)C(=O)C(C)(C)C6CCC5(C)C3(C)CC4)CCC3(C)C(C(=O)C=C4C5(C)C=C(C#N)C(=O)C(C)(C)C5CCC43C)C2C1 (centres unmarked)")
6.04
>>> quantitative_readout("CC1(C)CCC2(C(=O)NCCCCCCNC(=O)C34CCC(C)(C)CC3C3C(=O)C=C5C6(C)C=C(C#N)C(=O)C(C)(C)C6CCC5(C)C3(C)CC4)CCC3(C)C(C(=O)C=C4C5(C)C=C(C#N)C(=O)C(C)(C)C5CCC43C)C2C1 (centres unmarked)")
5.99

Give me pEC50 for each of these molecules, listed below.
1. CC1(C)CCC2(C(=O)NCCN3CCN(CCNC(=O)C45CCC(C)(C)CC4C4C(=O)C=C6C7(C)C=C(C#N)C(=O)C(C)(C)C7CCC6(C)C4(C)CC5)CC3)CCC3(C)C(C(=O)C=C4C5(C)C=C(C#N)C(=O)C(C)(C)C5CCC43C)C2C1 (centres unmarked)
2. CC1(C)CCC2(C(=O)NCCOCCOCCNC(=O)C34CCC(C)(C)CC3C3C(=O)C=C5C6(C)C=C(C#N)C(=O)C(C)(C)C6CCC5(C)C3(C)CC4)CCC3(C)C(C(=O)C=C4C5(C)C=C(C#N)C(=O)C(C)(C)C5CCC43C)C2C1 (centres unmarked)

[reply]
1. 6.47
2. 6.99
